The following binders are listed with their measured CD28 scFv signal values.
- testSystem: T1, Anti-CD28 scFv (VH - linker 1 - VL) (biotinylated (site not stated))
- T1 construct: Captured as biotinylated scFv on neutravidin plates in the panning ELISA
- T1 sequence (scFv, as listed by the source): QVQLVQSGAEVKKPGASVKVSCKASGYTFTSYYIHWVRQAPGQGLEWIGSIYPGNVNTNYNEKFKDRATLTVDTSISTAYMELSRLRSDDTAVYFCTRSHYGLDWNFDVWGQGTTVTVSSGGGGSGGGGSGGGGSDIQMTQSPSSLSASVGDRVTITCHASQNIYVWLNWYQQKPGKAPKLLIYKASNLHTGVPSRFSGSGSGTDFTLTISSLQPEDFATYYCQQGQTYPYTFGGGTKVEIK
- protocolText: phage ELISA: biotinylated anti-CD28 scFv on neutravidin plate, clonal phage supernatant, anti-M13-HRP detection;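 note: competition format: before phage supernatant was added, wells were preincubated with soluble CD28 protein or with blocking buffer only, and phage were added without an intervening wash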

- binder: "MNWCPIDMWTECFN [Phage-406]"
  CD28 scFv signal: 1.4
- binder: "MDWCPRSMWDSCFN [Phage-399]"
  CD28 scFv signal: 2.02
- binder: "MDWCPRDMWFECFN [Phage-393]"
  CD28 scFv signal: 2.42
- binder: "MDWCPFDMWADCFF [Phage-391]"
  CD28 scFv signal: 2.53
- binder: "MDWCPRDMWTSCFN [Phage-404]"
  CD28 scFv signal: 1.41
- binder: "MDWCPLDMWVLCFA [Phage-401]"
  CD28 scFv signal: 1.84
- binder: "MSWCPRFMWHECFN [Phage-411]"
  CD28 scFv signal: 1.11
- binder: "MDWCPRYMWSDCFF [Phage-394]"
  CD28 scFv signal: 2.28
